Molecular target: T1, recombinant human vascular endothelial growth factor (hVEGF) 121 (human, UniProt P15692 27-147)
T1 construct: mature; also called human VEGF-A121; hVEGF 121 isoform
T1 sequence (looked up): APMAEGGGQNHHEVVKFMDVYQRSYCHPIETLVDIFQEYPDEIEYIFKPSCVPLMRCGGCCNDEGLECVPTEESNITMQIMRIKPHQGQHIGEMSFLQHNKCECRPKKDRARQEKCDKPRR
Test: SPR, off rate of hVEGF-121 binding
Provide the reported koff of each item.
The response must be a number in s⁻¹ with no trailing unit.

Give the measured koff for FF03033-5 (Fab, V domains shown, fifth generation Fab from the library based on FF0117-A5) VH: EVQLVESGGGLVQPGGSLRLSCAASGFDLFHYSIHWVRQAPGKGLEWVAYIYPSYGYTYYADSVKGRFTISADTSKNTAYLQMNSLRAEDTAVYYCARHAWYYGWGLDYWGQGTLVTVSS VL: DIQMTQSPSSLSASVGDRVTITCRASQGVGERVAWYQQKPGKAPKLLIYNASHLAGVPSRFSGSRSGTDFTLTISSLQPEDFATYYCQQRGWYLFTFGQGTKVEIK 0.000168

Tell us which koff value is on record for FF03033-3 (Fab, V domains shown, fifth generation Fab from the library based on FF0117-A5) VH: EVQLVESGGGLVQPGGSLRLSCAASGFDLFHYSIHWVRQAPGKGLEWVAYIYPSYGYTYYADSVKGRFTISADTSKNTAYLQMNSLRAEDTAVYYCARHAWYYGWGLDYWGQGTLVTVSS VL: DIQMTQSPSSLSASVGDRVTITCRASQFVGYNVAWYQQKPGKAPKLLIYQASSLAGVPSRFSGSRSGTDFTLTISSLQPEDFATYYCQQRGWYLFTFGQGTKVEIK 0.000146

Look up and state reported koff for FF03033-2 (Fab, V domains shown, fifth generation Fab from the library based on FF0117-A5) VH: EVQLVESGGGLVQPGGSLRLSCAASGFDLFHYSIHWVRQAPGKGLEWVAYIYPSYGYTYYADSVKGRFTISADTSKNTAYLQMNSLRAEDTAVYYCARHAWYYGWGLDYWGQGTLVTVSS VL: DIQMTQSPSSLSASVGDRVTITCRASQVAFYNVAWYQQKPGKAPKLLIYDASILNGVPSRFSGSRSGTDFTLTISSLQPEDFATYYCQQRGWYLFTFGQGTKVEIK 0.000236

State its koff for this binder: FF03033-6 (Fab, V domains shown, fifth generation Fab from the library based on FF0117-A5) VH: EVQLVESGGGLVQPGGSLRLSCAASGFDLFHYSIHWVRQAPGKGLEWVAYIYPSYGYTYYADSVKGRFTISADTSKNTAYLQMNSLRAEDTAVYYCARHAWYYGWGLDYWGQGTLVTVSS VL: DIQMTQSPSSLSASVGDRVTITCRASQPREDRVAWYQQKPGKAPKLLIYRASTLAGVPSRFSGSRSGTDFTLTISSLQPEDFATYYCQQRGWYLFTFGQGTKVEIK 0.000284
